What inhibition at 50 µM was measured for each of the following?
tested on: HepG2-A16-CD81EGFP cells; experiment: cells; settings: Homo sapiens, HepG2, read-out: Tox max inhibition (%) @ 50 uM
One number for each entry, in %.

These solved cases illustrate the format of a correct answer.
>>> measured("O=C(NC1CCN(Cc2ccccc2)CC1)c1cc(C(=O)NC2CCN(Cc3ccccc3)CC2)cc(C(=O)NC2CCN(Cc3ccccc3)CC2)c1")
60
>>> measured("COc1ccc(Nc2nc(NN=Cc3ccc(O)cc3)nc(Nc3ccc([N+](=O)[O-])cc3)n2)cc1")
73

Please state, for each entry, its recorded inhibition at 50 µM.
1. O=C(Nc1cccc(C(F)(F)F)c1)c1cc(Cl)ccc1O
2. CC(=O)Nc1nnc(SCc2c(C)cc(C(C)(C)C)cc2C)s1
3. COC(=O)c1ccc(C2C3=C(O)CC(c4ccc(F)cc4)CC3=Nc3ccccc3N2C(=O)c2ccccc2)cc1 (centres unmarked)

Reply text:
1: 94; 2: 10; 3: 8

Would you mind listing inhibition at 50 µM for each of the following compounds?
1. COc1ccc(NC(=O)C2c3ccccc3C(=O)N(CC(C)C)C2c2cccs2)cc1 (centres unmarked)
2. CCN(CC)CCNc1ccnc2cc3ccccc3cc12
3. COc1cc2c(cc1OC)C1=NNC(=O)C1=NC(C)(C)C2

Reply text:
1. 37
2. 92
3. 94

Batch of 3 compounds: report inhibition at 50 µM for each.
1. CCN(CC)CCn1c(=N)n(CC(O)c2ccc(Cl)c(Cl)c2)c2ccccc21 (centres unmarked)
2. CCOc1ccc(C=Cc2nc(=O)c3ccccc3o2)cc1
3. CCOc1cc(Cl)c(C(C)NC(=O)c2ccccc2)cc1OCC (centres unmarked)

Reply text:
98
18
22
